System: newly transformed schistosomula (NTS)
methodSummary: In vitro screening of newly transformed schistosomula
Assay type: cell-based, Schistosoma mansoni
recordedConditions: Schistosoma mansoni, 72 h, read-out: NTS EC50
What EC50 was measured for each of the following?
Answers are plain numbers, in nM.

// below: answered molecules
N#Cc1cc(/C=N/NC(=N)N/N=C/c2ccc(Cl)c(C#N)c2)ccc1Cl = 1240
Cl.N=C(NN=CCc1ccc(OC(F)F)cc1)NN=CCc1ccc(OC(F)F)cc1 = 2790

Hi, could you look up EC50 for each item in my list?
1. N=C(N/N=C/c1ccc(Oc2ccccc2)cc1)N/N=C/c1ccc(Oc2ccccc2)cc1
2. N=C(NN=Cc1ccc(C(F)(F)F)cc1)NN=Cc1ccc(C(F)(F)F)cc1

1: 3840; 2: 6230

Hi, could you look up EC50 for each item in my list?
1. N=C(NN=Cc1ccc(OC(F)(F)F)cc1)NN=Cc1ccc(OC(F)(F)F)cc1
2. N=C(N/N=C/c1ccnc2ccccc12)N/N=C/c1ccnc2ccccc12
3. N=C(NN=CCc1ccc(OC(F)(F)F)cc1)NN=CCc1ccc(OC(F)(F)F)cc1
4. N=C(NN=Cc1ccc(OC(F)F)cc1)NN=Cc1ccc(OC(F)F)cc1
5. Cl.N#Cc1cccc(C=NNC(=N)NN=Cc2cccc(C#N)c2)c1

1: 3310; 2: 1570; 3: 2010; 4: 4630; 5: 1660

Hi, could you look up EC50 for each item in my list?
1. N=C(NN=Cc1ccc([N+](=O)[O-])cc1)NN=Cc1ccc([N+](=O)[O-])cc1
2. COc1cc(OC)c(CC=NNC(=N)NN=CCc2cc(Cl)c(OC)cc2OC)cc1Cl

5710
2700

---

System: newly transformed schistosomula (NTS)
methodSummary: In vitro screening of newly transformed schistosomula
Type: cell-based, Schistosoma mansoni
recordedConditions: Schistosoma mansoni, 72 h, read-out: NTS EC50
What pEC50 was measured for each of the following?
One number for each entry, as −log10 of the molar value.

// below: answered compounds
N=C(N/N=C/c1ccc(-c2ccc(F)cc2)cc1)N/N=C/c1ccc(-c2ccc(F)cc2)cc1 = 5.47
Cl.N#Cc1cc(/C=N/NC(=N)N/N=C/c2ccc(OC(F)(F)F)cc2)ccc1F = 5.40
Cl.N#Cc1cc(C=NNC(=N)NN=Cc2ccc(F)c(C#N)c2)ccc1F = 5.90

Please respond with reported pEC50 (system newly transformed schistosomula (NTS)) for `N=C(N/N=C/c1cccc(-c2ccccc2)c1)N/N=C/c1cccc(-c2ccccc2)c1` .
5.51

Just for reference, paper PMC11101930 is where these values come from.
